TARGET ENTITY: UniProt O00187
EXPERIMENT DESCRIPTION: MASP-2 co-crystallization, X-ray crystallography and structure analysis (H-bonds, van der Waals contacts)
CONDITION DESCRIPTION: Table A5-1 pharmacophore: distance between elements, S2/S1 region
Some compounds, each annotated with its measured d(CA1,N1).
Please reply with the value in numeric form only.

{"COMPOUND": "Cc1cnc(NCCc2ccccc2)c(=O)n1CC(=O)NCc1ccc2nc(N)[nH]c2c1 [compound 1492]", "d(CA1,N1)": 1.85}
{"COMPOUND": "C[C@H](NC(=O)[C@H](N)CCCc1ccccc1)C(=O)NCc1ccc(C(=N)N)cc1.Cl.Cl [1042_3]", "d(CA1,N1)": 3.63}
{"COMPOUND": "C[C@H](NC(=O)[C@H](N)CCc1cccc(Cl)c1)C(=O)NCc1ccc(C(=N)N)cc1 [compound 1081]", "d(CA1,N1)": 3.62}
{"COMPOUND": "C[C@H](NC(=O)C1C[C@@H](c2ccccc2)CCN1)C(=O)NCc1ccc(C(=N)N)cc1 (stereo in doubt) [compound 1063]", "d(CA1,N1)": 3.56}
{"COMPOUND": "C[C@H](NC(=O)[C@@H](CCc1ccccc1)NCc1ccc(C(=O)N2CCOCC2)cc1)C(=O)NCc1ccc(C(=N)N)cc1.Cl.Cl [1153_B]", "d(CA1,N1)": 3.54}

Query (compound): C[C@H](NC(=O)[C@H](N)CCCc1ccccc1)C(=O)NCc1ccc(C(=N)N)cc1.Cl.Cl [1042_1] ; field requested: d(CA1,N1)
3.58

Likewise for C[C@H](NC(=O)[C@H]1Cc2c([nH]c3ccccc23)CN1)C(=O)NCc1ccc(C(=N)N)cc1.Cl.Cl [1097_2] ?
3.52

====

TARGET ENTITY: MASP-2 CCP2-SP (Homo sapiens (Human), UniProt O00187)
Sequence (O00187 445-686): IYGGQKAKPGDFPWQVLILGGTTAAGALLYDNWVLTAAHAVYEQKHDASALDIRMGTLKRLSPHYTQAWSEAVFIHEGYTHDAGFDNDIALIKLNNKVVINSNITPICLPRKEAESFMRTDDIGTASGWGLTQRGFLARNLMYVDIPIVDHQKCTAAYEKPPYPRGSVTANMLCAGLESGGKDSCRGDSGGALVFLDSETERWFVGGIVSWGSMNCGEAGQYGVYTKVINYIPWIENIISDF
Sequence (O00187 364-432 partner): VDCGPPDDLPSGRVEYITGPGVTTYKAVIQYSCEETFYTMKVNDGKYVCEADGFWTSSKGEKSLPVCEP
EXPERIMENT DESCRIPTION: MASP-2 co-crystallization, X-ray crystallography and structure analysis (H-bonds, van der Waals contacts);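 on Ligand-pharmacophore element distance, pharmacophore element C5: distance from averaged pharmacophore element to bound ligand; missing value means element absent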
CONDITION DESCRIPTION: Table A4-1; element C5
Where a name gives a salt, the structure may show the parent alone.
Entries and their Ligand-pharmacophore element distance, pharmacophore element C5
Give your answer as a number; write no unit.

{"COMPOUND": "C[C@H](NC(=O)[C@H]1C[C@@H](c2ccccc2)CCN1)C(=O)NCc1cc(Cl)ccc1O.Cl [1078_1]", "MEASURED NUMBER": 0.4}
{"COMPOUND": "C[C@H](NC(=O)[C@H]1Cc2c([nH]c3ccccc23)CN1)C(=O)NCc1ccc(C(=N)N)cc1.Cl.Cl [1097_1]", "MEASURED NUMBER": 0}
{"COMPOUND": "C[C@H](NC(=O)[C@H]1C[C@@H](c2ccccc2)CN1)C(=O)NCc1ccc2c(N)nccc2c1.Cl.Cl [1089_A]", "MEASURED NUMBER": 0}
{"COMPOUND": "C[C@H](NC(=O)[C@H]1C[C@@H](c2ccccc2)CCN1)C(=O)NCc1cc(Cl)ccc1O.Cl [1078_15]", "MEASURED NUMBER": 0.43}

Notebook: pull reported Ligand-pharmacophore element distance, pharmacophore element C5 for MASP-2 CCP2-SP (Homo sapiens (Human), UniProt O00187), entry C[C@H](NC(=O)[C@H](N)CCc1cc(Cl)cc(Cl)c1)C(=O)NCc1ccc(C(=N)N)cc1
0

Likewise for C[C@H](NC(=O)[C@H](N)C1Cc2ccccc2C1)C(=O)NCc1ccc2nc(N)[nH]c2c1 ?
0

Lookup CC(=O)Nc1ccc(CCN[C@H](CCc2ccccc2)C(=O)N[C@@H](C)C(=O)NCc2ccc(N)nc2C)cc1 [compound 1368, Dihydrochloride]
0

Reference source for all entries: patent US12195427B2
